- Study Target: C-terminal region of human ALK ECD (T637-S1038) (Homo sapiens, UniProt Q9UM73)
- Sequence (Q9UM73 19-1620): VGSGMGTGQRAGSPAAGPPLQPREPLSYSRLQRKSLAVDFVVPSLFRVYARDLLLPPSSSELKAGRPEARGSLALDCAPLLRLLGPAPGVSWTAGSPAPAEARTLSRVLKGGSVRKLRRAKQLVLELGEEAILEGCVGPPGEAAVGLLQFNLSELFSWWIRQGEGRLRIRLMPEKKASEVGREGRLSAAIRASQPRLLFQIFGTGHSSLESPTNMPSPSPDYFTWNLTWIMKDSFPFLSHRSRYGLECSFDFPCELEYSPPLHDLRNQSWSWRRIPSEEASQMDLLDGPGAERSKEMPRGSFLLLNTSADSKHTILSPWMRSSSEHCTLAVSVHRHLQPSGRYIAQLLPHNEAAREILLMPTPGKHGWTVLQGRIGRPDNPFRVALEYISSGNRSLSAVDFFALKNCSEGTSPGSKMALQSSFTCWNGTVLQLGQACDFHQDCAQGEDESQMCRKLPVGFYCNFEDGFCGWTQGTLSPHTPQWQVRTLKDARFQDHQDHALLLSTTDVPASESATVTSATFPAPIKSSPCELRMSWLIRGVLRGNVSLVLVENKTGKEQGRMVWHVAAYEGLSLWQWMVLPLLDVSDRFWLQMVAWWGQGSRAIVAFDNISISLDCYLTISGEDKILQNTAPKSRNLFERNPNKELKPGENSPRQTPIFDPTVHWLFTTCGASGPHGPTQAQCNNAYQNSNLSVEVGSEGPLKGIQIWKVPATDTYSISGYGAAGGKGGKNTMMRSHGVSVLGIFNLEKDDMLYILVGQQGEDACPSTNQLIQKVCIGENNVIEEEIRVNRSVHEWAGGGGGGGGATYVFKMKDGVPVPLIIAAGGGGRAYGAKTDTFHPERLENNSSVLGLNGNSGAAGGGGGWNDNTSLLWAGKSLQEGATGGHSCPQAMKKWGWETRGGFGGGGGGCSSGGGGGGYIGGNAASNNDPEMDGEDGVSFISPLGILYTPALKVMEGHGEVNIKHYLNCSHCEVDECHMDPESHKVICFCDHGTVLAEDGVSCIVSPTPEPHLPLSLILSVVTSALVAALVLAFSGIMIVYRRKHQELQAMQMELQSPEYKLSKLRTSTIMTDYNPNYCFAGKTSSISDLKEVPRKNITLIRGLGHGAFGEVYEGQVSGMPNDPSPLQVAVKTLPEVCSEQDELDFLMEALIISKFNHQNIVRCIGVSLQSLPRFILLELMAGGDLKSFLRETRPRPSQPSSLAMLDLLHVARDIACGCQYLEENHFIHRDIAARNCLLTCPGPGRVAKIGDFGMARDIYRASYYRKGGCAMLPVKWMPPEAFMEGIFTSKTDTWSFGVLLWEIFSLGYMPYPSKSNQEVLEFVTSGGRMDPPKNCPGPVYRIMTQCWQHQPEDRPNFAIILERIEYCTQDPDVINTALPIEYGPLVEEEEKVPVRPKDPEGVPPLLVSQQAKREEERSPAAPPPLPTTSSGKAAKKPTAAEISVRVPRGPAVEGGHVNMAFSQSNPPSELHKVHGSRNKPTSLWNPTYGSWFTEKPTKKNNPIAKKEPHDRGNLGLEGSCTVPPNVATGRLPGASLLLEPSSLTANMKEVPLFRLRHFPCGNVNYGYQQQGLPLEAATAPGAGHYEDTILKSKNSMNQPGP
- Run Description: Competitive binding assay (epitope binning) by flow cytometry
- Experimental Conditions: antibodies to the C-terminal region
For each of the molecules below, state its Bin/Domain (bin).

Example cases with answers are listed next.
Ab327: anti-ALK monoclonal antibody; VL SEQ ID NO: 409, VH SEQ ID NO: 410 (antibody, V domains shown, VH domain - Ab327; VL domain - Ab327) VH: DVKLVESGEGLVKPGGSLKLSCAASGFTFSSYAMSWVRQTPEKRLEWVTYISSGGDYIYYADTVKGRFTISRDNARNTLYLQMSSLKSEDTAMYYCTRERIWLRRFFDVWGTGTTVTVSS VL: DIVMTQSQKFMSTSVGDRVSITCKASQNVGTAVAWYQLKPGQSPKLLIYSASNRFTGVPDRFTGSGSGTDFTLTISNMQSEDLADYFCQQYSSYPLTFGSGTKLEIKR: 2
Ab323: anti-ALK monoclonal antibody; VL SEQ ID NO: 401, VH SEQ ID NO: 402 (antibody, V domains shown, VH domain - Ab323; VL domain - Ab323) VH: QVQLQQSGAELVKPGASVKISCKTSGYTFSNYWMNWVKQRPGKGLEWIGQIFPGDADANYNGKFKGKATLTADKSSSAAFMQLSSLTSEDSAVYFCARFSYDGAFAYWGQGTLVTVS VL: DIVMTQSHKFMSTSVGDRVSITCKASQDVSTAVAWYQQKPGQSPKPLIYWASTRHTGVPDRFTGSGSGTDYTLTISSVQTEDLALYYCQQHYSTPRTFGGGTKLEIKR: 1
Ab328: anti-ALK monoclonal antibody; VL SEQ ID NO: 411, VH SEQ ID NO: 412 (antibody, V domains shown, VH domain - Ab328; VL domain - Ab328) VH: QVQLQQSGAELAKPGASVKLSCKASGYTFTSYWMHWVKQRPGQGLEWIGYINPSSGYTKYNQKFKDKATLTADKSSSTAYMQLSSLTFEDSAVYYCARDYYGSSSWFAYWGQGTLVTVSA VL: DIVMTQSQKFMSTSVGDRVSVTCKASQNVGTNVAWYQQKPGHSPKALIYSASYRYSGVPDRFTGSGSGTDFTLTISNVQSEDLAEYFCQRYNSYPYMFTFGGGTKLEIKR: 2

Next:
Lookup: Item under review: Ab325: anti-ALK monoclonal antibody; VL SEQ ID NO: 405, VH SEQ ID NO: 406 (antibody, V domains shown, VH domain - Ab325; VL domain - Ab325) VH: QVQLQQSGAELVKPGASVKISCKASGYAFSSYWMNWVKQRPGKGLEWIGQIYPGDGDTNYNGKFKGKATLTADKSSSTAYMQLSSLTSEDSAVYFCARWYYGSYYAMDYWGQGTSVTVSS VL: DIQMTQTTSSLSASLGDRVTISCRASQDISNYLNWYQQKPDGTVKLLIYYTSRLHSGVPSRFSGSGSGTDYSLTISNLEQEDIATYFCQQGNTLPRTFGGGTKLEIKR . Reported Bin/Domain (bin)?
Found: 1
